Assay: inhibitors of firefly luciferase expression or activity, dose response, H4 neuroglioma cells, luminescence (AID 1990)
Assay type: functional, cell-based
Activity calls are given as the source filed them. Cut-off read from the data, not from the text of the source: actives have a measured EC50 and inactives only a lower limit.
VALUE_TYPE: EC50

>  <COMPOUND>
COc1cccc(C(=O)Nc2cccc(OCC(=O)O)c2)c1

>  <VALUE>
> 120 µM (not active)

$$$$
>  <COMPOUND>
CC[C@@]1(O)C(=O)OCc2c1cc1n(c2=O)Cc2cc3ccccc3nc2-1

>  <VALUE>
0.134 µM (active)

$$$$
>  <COMPOUND>
CSc1nc(N(C)NC(=O)c2cccc(C)c2)c2ccccc2n1

>  <VALUE>
< 0.1 µM (active)

$$$$

Name the reported EC50 value associated with the compound `COc1ccccc1N1CCN(S(=O)(=O)CCNC(=O)c2cc(OC)c(OC)c(OC)c2)CC1`
> 120 µM (not active)

Next entry: CN(C)S(=O)(=O)c1ccc(N2C(=O)CC2(/C=C/c2ccccc2)C(=O)NC2CCCC2)cc1 (stereo not given)
> 120 µM (not active)
